The measurements presented in this section are drawn from ChEMBL document CHEMBL1142534.

Experiment: Tmax in Wistar rat at 10 mg/kg, po by cassette dosing
Type: ADME, organism-based
Parameters: dose 10 mg/kg, route oral
Details: in vivo
measured property: Tmax (h)

1 = Oc1ccc(-c2cnc(-c3cccc(O)c3)s2)cc1
2 = Oc1cccc(-c2nnc(-c3cccc(O)c3)nn2)c1
-- ask Identify the entry with the smaller Tmax: 1 or 2 . Give the chosen item's label as your response.
-- reply 2

====

Target: Cytochrome P450 1A2 (Homo sapiens)
Sequence (P05177 whole entry): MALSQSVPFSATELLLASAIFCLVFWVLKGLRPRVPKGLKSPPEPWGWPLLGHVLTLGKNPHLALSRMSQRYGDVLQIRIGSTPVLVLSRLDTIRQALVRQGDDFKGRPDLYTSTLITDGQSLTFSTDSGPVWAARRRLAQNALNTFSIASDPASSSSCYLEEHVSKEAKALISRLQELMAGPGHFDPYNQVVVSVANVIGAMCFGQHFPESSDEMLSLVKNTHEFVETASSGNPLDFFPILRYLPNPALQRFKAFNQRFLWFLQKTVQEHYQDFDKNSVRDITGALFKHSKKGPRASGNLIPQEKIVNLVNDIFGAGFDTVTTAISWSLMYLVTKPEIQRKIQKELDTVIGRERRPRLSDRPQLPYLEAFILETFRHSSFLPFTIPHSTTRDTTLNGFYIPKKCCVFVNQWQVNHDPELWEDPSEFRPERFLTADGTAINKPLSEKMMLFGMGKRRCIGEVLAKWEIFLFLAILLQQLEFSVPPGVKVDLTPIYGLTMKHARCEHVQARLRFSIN
pIC50: −log10 of the molar value.
measured property: pIC50

{"smiles str": "Oc1cccc(-c2ccc(-c3cccc(O)c3)cc2)c1", "pIC50": "< 5.40"}

So for Oc1cccc(-c2cnc(-c3cccc(O)c3)s2)c1 , the logged pIC50 turned out to be < 5.40
